Task for the reader: assign each of the following compounds its reported pIC50.
target: PPARγ (Mus musculus, UniProt P37238); construct: PPARγ (aa 174 to 476); assay: Radioligand binding assay (SPA), PPARγ receptor binding; details: GST-PPARγ-LBD fusion protein, scintillation proximity radioligand binding
Sequence (P37238 204-505): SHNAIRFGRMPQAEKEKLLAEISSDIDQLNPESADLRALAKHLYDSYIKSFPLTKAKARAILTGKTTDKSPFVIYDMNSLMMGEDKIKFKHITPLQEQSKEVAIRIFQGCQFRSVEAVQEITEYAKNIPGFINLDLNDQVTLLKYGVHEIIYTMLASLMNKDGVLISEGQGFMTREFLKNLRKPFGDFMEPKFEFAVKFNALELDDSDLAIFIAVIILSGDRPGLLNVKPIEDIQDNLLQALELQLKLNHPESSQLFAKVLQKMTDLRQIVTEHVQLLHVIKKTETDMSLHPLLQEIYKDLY
pIC50: −log10 of the molar value.

Please review the following examples before continuing.
| STRUCTURE STRING | pIC50 |
| --- | --- |
| Cc1cc(OCCC#Cc2ccc(OC(F)(F)F)cc2)ccc1OC(C)(C)C(=O)O | < 5.00 |
| Cc1cc(OCCCC#Cc2ccc(OC(F)(F)F)cc2)ccc1OC(C)(C)C(=O)O | < 5.00 |

Look up pIC50 for this compound: Cc1cc(SCCCC#Cc2ccc(OC(F)(F)F)cc2)ccc1OCC(=O)O
< 5.00

---

READOUT TYPE: melting point

Please review the following examples before continuing.
| STRUCTURE STRING | melting point |
| --- | --- |
| Cc1cc(SCCC#Cc2ccc(C(F)(F)F)cc2)ccc1OCC(=O)O | 129 to 130 °C |
| Cc1cc(SCC#Cc2ccc(Cl)cc2)ccc1OCC(=O)O | 106 to 108 °C |
| CC(C)(Oc1ccc(OCCCC#Cc2ccc(OC(F)(F)F)cc2)c(F)c1)C(=O)O | 65.5 to 68.5 °C |
| Cc1cc(OCCCC#Cc2ccc(Cl)c(F)c2)ccc1OC(C)(C)C(=O)O | 106 to 107 °C (dec.) |

The following compounds each have a reported value; give each one's melting point.
1. Cc1cc(OCCCC#Cc2ccc(C(F)(F)F)cc2)ccc1OC(C)(C)C(=O)O
2. Cc1cc(OCCCC#Cc2cnc(C(F)(F)F)nc2)ccc1OC(C)(C)C(=O)O
3. CC(C)(Oc1ccc(CNC(=O)CCC#Cc2ccc(OC(F)(F)F)cc2)cc1)C(=O)O

["114 to 115 °C (dec.)", "95 to 97 °C (dec.)", "127 to 128 °C (dec.)"]

The following compounds each have a reported value; give each one's melting point.
1. Cc1cc(OCCC#Cc2ccc(Cl)cc2)ccc1OC(C)(C)C(=O)O
2. Cc1cc(SCCCC#Cc2ccc(OC(F)(F)F)cc2)ccc1OCC(=O)O
3. Cc1c(OC(C)(C)C(=O)O)ccc(OCCCC#Cc2ccc(OC(F)(F)F)cc2)c1F
4. Cc1cc(SCC#Cc2ccccc2C(F)(F)F)ccc1OCC(=O)O

["68 to 69 °C (dec.)", "94 to 95 °C", "116 to 118 °C", "95 to 97 °C"]

These data points were gathered from patent US7253192B2.
